Listing of entries alongside the reported Kb.
# subject_of_test: human orexin-2 (hOX2) receptor (Homo sapiens, UniProt O43614)
# Construct: expressed in transfected cells
# test_protocol: Intracellular Ca2+ mobilization assay (FLIPR), CHO(dHFr-) cells expressing hOX2, orexin-A as agonist
# Format: cell-based
# cond: antagonist Kb=IC50/(1+[A]/EC50); orexin-A at EC80; CHO(dHFr-)-OX2R cells; antagonist applied 25 min before agonist
# unit: µM | format: bare number

Previously resolved entries follow.
INSERT INTO measurements (compound, measure_name, units_of_measure, numeric_readout) VALUES
  ('Cc1onc(-c2ccccc2)c1C(=O)N1CC[C@@H](Nc2nc3ccc(F)c(F)c3o2)C1 [Example 151]', 'Kb', 'µM', 0.0355),
  ('O=C(c1ccccc1OC(F)(F)F)N1CC[C@@H](Nc2cnc3cc(F)c(F)cc3n2)C1 [Example 166]', 'Kb', 'µM', 0.009),
  ('Cc1ccc(C(F)(F)F)c(C(=O)N2CC[C@@H](Nc3cnc4cc(Cl)ccc4n3)C2)c1 [Example 176]', 'Kb', 'µM', 0.014),
  ('Cc1nc(C(=O)N2CC[C@@H](Nc3cnc4cc(Cl)ccc4n3)C2)c(-c2ccccc2)s1 [Example 181]', 'Kb', 'µM', 0.028),
  ('O=C(c1ccccc1-n1cccc1)N1CC[C@@H](Nc2nc3ccc(Cl)cc3o2)C1 [Example 28]', 'Kb', 'µM', 0.0096),
  ('Cc1ccc(C(F)(F)F)c(C(=O)N2CC[C@@H](Nc3nc4cc(F)c(F)cc4s3)C2)c1 [Example 202]', 'Kb', 'µM', 0.0046),
  ('COc1cccc(OC)c1C(=O)N1CC[C@@H](Nc2nc3cccc(Cl)c3o2)C1 [Example 97]', 'Kb', 'µM', 0.0063),
  ('Cc1nc(C(=O)N2CC[C@@H](Nc3nc4ccc(F)c(F)c4o3)C2)c(-c2ccccc2)s1 [Example 155]', 'Kb', 'µM', 0.0304),
  ('O=C(c1ccccc1OC(F)(F)C(F)F)N1CC[C@@H](Nc2nc3cc(F)cc(F)c3s2)C1 [Example 132]', 'Kb', 'µM', 0.016),
  ('O=C(c1ccccc1OC(F)(F)F)N1CC[C@@H](Nc2nc3ccc(Cl)cc3o2)C1 [Example 71]', 'Kb', 'µM', 0.0097);

Give a short answer stating reported Kb for COc1cccc(OC)c1C(=O)N1CC[C@@H](Nc2nc3c(Cl)cccc3s2)C1 [Example 43] .
0.0015

Give a short answer stating reported Kb for Cc1ccc(C(F)(F)F)c(C(=O)N2CC[C@@H](Nc3nc4ccc(Cl)cc4o3)C2)c1 [Example 68] .
0.0018

Give a short answer stating reported Kb for O=C(c1ccccc1OC(F)(F)F)N1CC[C@@H](Nc2nc3ccc(F)cc3s2)C1 [Example 113] .
0.0217

Give a short answer stating reported Kb for O=C(c1ccccc1C(F)(F)F)N1CC[C@@H](Nc2cnc3cc(F)c(F)cc3n2)C1 [Example 165] .
0.0185

Give a short answer stating reported Kb for Cc1noc(-c2ccccc2C(=O)N2CC[C@@H](Nc3nc4c(F)cccc4s3)C2)n1 [Example 126] .
0.0144

Give a short answer stating reported Kb for CCOc1ccccc1C(=O)N1CC[C@@H](Nc2nc3ccc(Cl)cc3o2)C1 [Example 52] .
0.0249

Give a short answer stating reported Kb for COc1cccc(OC)c1C(=O)N1CC[C@@H](Nc2nc3ccc(Cl)cc3s2)C1 [Example 25] .
0.0163

Give a short answer stating reported Kb for COc1cccc(OC)c1C(=O)N1CC[C@@H](Nc2nc3ccc(F)c(F)c3o2)C1 [Example 93] .
0.0164

Give a short answer stating reported Kb for COc1cccc(OC)c1C(=O)N1CC[C@@H](Nc2cnc3cc(F)c(F)cc3n2)C1 [Example 92] .
0.0029

Give a short answer stating reported Kb for O=C(c1ccccc1C(F)(F)F)N1CC[C@@H](Nc2nc3ccc(Cl)cc3o2)C1 [Example 63] .
0.0219

Give a short answer stating reported Kb for Cc1nc(C(=O)N2CC[C@@H](Nc3cnc4cc(F)c(F)cc4n3)C2)c(-c2ccccc2)s1 [Example 172] .
0.0032

Give a short answer stating reported Kb for COc1cccc(OC)c1C(=O)N1CCC(Nc2nc3ccc(Cl)cc3o2)C1 (stereo not drawn) [Example 1] .
0.0279

###

# subject_of_test: human orexin-2 (hOX2) receptor (Homo sapiens, UniProt O43614)
# Construct: expressed in transfected cells
# test_protocol: Intracellular Ca2+ mobilization assay (FLIPR), CHO(dHFr-) cells expressing hOX2, orexin-A as agonist
# Assay type: cell-based
# cond: antagonist Kb=IC50/(1+[A]/EC50); orexin-A at EC80; CHO(dHFr-)-OX2R cells; antagonist applied 25 min before agonist
Listing of entries alongside the reported Kb.
# unit: µM | format: bare number

Previously resolved entries follow.
INSERT INTO assay_data (compound, units_of_measure, numeric_readout) VALUES
  ('O=C(c1ccccc1OC(F)(F)C(F)F)N1CC[C@@H](Nc2nc3c(F)cccc3s2)C1', 'µM', 0.0032),
  ('COc1cccc(OC)c1C(=O)N1CC[C@@H](Nc2cnc3ccccc3n2)C1', 'µM', 0.0415),
  ('O=C(c1ccccc1OC(F)(F)C(F)F)N1CC[C@@H](Nc2cnc3ccc(Cl)cc3n2)C1', 'µM', 0.0324),
  ('Cc1nc(-c2ccccc2)c(C(=O)N2CC[C@@H](Nc3nc4ccc(Cl)cc4o3)C2)s1', 'µM', 0.0145),
  ('COc1cccc(OC)c1C(=O)N1CCC(Nc2nc3ccc(Cl)cc3s2)C1 (centres unmarked)', 'µM', 0.0228),
  ('O=C(c1ccccc1C(F)(F)F)N1CC[C@@H](Nc2nc3ccc(F)cc3s2)C1', 'µM', 0.0344),
  ('Cc1ccc(C(F)(F)F)c(C(=O)N2CC[C@@H](Nc3nc4c(Cl)cccc4s3)C2)c1', 'µM', 0.008);

Give a short answer stating reported Kb for "Cc1noc(-c2ccccc2C(=O)N2CC[C@@H](Nc3nc4cc(F)cc(F)c4s3)C2)n1" .
0.0394

###

Listing of entries alongside the reported Kb.
# subject_of_test: human orexin-2 (hOX2) receptor (Homo sapiens)
# Construct: expressed in transfected cells
# test_protocol: Intracellular Ca2+ mobilization assay (FLIPR), CHO(dHFr-) cells expressing hOX2, orexin-A as agonist
# Format: cell-based
# cond: antagonist Kb=IC50/(1+[A]/EC50); orexin-A at EC80; CHO(dHFr-)-OX2R cells; antagonist applied 25 min before agonist
# unit: µM | format: bare number

Previously resolved entries follow.
INSERT INTO assay_data (molecule, units_of_measure, numeric_readout) VALUES
  ('O=C(c1ccccc1-c1cccnc1)N1CC[C@@H](Nc2nc3ccc(Cl)cc3o2)C1 [Example 65]', 'µM', 0.0272),
  ('Cc1ccc(C(F)(F)F)c(C(=O)N2CC[C@@H](Nc3nc4c(F)cccc4s3)C2)c1 [Example 124]', 'µM', 0.0363),
  ('Cc1ccc(C(F)(F)F)c(C(=O)N2CC[C@@H](Nc3nc4ccc(F)c(F)c4o3)C2)c1 [Example 150]', 'µM', 0.0136);

Give a short answer stating reported Kb for O=C(c1ccccc1-c1ncn[nH]1)N1CC[C@@H](Nc2nc3ccc(Cl)cc3o2)C1 [Example 62] .
0.014

Give a short answer stating reported Kb for O=C(c1ccccc1OC(F)(F)C(F)F)N1CC[C@@H](Nc2nc3ccc(F)cc3o2)C1 [Example 158] .
0.0039

Give a short answer stating reported Kb for O=C(c1ccccc1OC(F)(F)C(F)F)N1CC[C@@H](Nc2nc3ccc(Cl)cc3o2)C1 [Example 82] .
0.0041

Give a short answer stating reported Kb for O=C(c1ccccc1-c1cccs1)N1CC[C@@H](Nc2nc3ccc(Cl)cc3o2)C1 [Example 70] .
0.0024

Give a short answer stating reported Kb for Cc1nc(C(=O)N2CC[C@@H](Nc3cnc4ccccc4n3)C2)c(-c2ccccc2)s1 [Example 189] .
0.028

###

Listing of entries alongside the reported Kb.
# subject_of_test: human orexin-2 (hOX2) receptor (Homo sapiens, UniProt O43614)
# Construct: expressed in transfected cells
# Sequence (O43614 1-444): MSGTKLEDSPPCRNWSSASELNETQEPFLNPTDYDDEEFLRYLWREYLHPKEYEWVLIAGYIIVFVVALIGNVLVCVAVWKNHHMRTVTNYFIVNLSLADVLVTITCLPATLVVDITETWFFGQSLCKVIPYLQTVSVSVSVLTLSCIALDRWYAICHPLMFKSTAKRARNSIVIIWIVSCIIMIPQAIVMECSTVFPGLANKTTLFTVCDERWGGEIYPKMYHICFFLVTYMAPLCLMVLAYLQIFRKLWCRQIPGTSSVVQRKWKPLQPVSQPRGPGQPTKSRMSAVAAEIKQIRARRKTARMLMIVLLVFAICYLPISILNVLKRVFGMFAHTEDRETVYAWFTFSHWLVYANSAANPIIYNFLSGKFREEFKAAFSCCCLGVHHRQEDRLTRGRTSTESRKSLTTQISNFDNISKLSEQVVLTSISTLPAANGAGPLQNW
# test_protocol: Intracellular Ca2+ mobilization assay (FLIPR), CHO(dHFr-) cells expressing hOX2, orexin-A as agonist
# Type: cell-based
# cond: antagonist Kb=IC50/(1+[A]/EC50); orexin-A at EC80; CHO(dHFr-)-OX2R cells; antagonist applied 25 min before agonist
# unit: µM | format: bare number

Give a short answer stating reported Kb for Cc1ccc(C(F)(F)F)c(C(=O)N2CC[C@@H](Nc3cnc4cc(C)c(Cl)cc4n3)C2)c1 [Example 212] .
0.0086

Give a short answer stating reported Kb for Cc1ccc(C(F)(F)F)c(C(=O)N2CC[C@@H](Nc3cnc4cc(Cl)c(C)cc4n3)C2)c1 [Example 213] .
0.0371

Give a short answer stating reported Kb for Cc1cccc(-c2ccccc2C(=O)N2CC[C@@H](Nc3nc4ccc(Cl)cc4o3)C2)c1 [Example 75] .
0.0163

Reference source for all entries: patent US7897627B2
